Test: Plasma pharmacokinetics after single oral sustained release dose
Type: in vivo, human
Details: human, plasma, po, 25 mg, plasma, single 25 mg SR oral dose, N=12; read-out: AUC0-inf, Mean
RECORDED_ENDPOINT: AUC(0-inf) (µM·h)
Your answer is read as µM·h, so omit the unit and give the number.

// AUC(0-inf) lookup, key: N#CCC1(n2cc(-c3ncnc4[nH]ccc34)cn2)CN(C2CCN(C(=O)c3ccnc(C(F)(F)F)c3F)CC2)C1
0.117

---

Test: Plasma pharmacokinetics after single oral sustained release dose
Assay type: in vivo, human
Settings: human, plasma, po, 25 mg, single 25 mg SR oral dose, N=12; read-out: Half-life or t1/2, Geometric Mean (converted)
RECORDED_ENDPOINT: half-life (h)
A number alone suffices; assume h.

Given the compound N#CCC1(n2cc(-c3ncnc4[nH]ccc34)cn2)CN(C2CCN(C(=O)c3ccnc(C(F)(F)F)c3F)CC2)C1 [Compound 1] , what is its reported half-life?
9.04

---

Assay system human JAK1 (a.a. 837-1142) (Homo sapiens (Human), UniProt P23458); read-out recorded as IC50.

Quick check: IC50 on human JAK1 (a.a. 837-1142) (Homo sapiens (Human), UniProt P23458), item N#CCC1(n2cc(-c3ncnc4[nH]ccc34)cn2)CN(C2CCN(C(=O)c3ccnc(C(F)(F)F)n3)CC2)C1 [Compound 3] ?
< 10 nM

I'm curious: which IC50 was measured for CCNCc1cc(O[C@H]2CC[C@@H](N3CC(CC#N)(n4cc(-c5ncnc6[nH]ccc56)cn4)C3)CC2)nc(C(F)(F)F)c1 [Compound 19] tested on human JAK1 (a.a. 837-1142) (Homo sapiens (Human), UniProt P23458)?
< 10 nM

Query the reported IC50 for human JAK1 (a.a. 837-1142) (Homo sapiens (Human), UniProt P23458); item: N#CCC1(n2cc(-c3ncnc4[nH]ccc34)cn2)CN([C@H]2CC[C@@H](Oc3cc(CCO)nc(C(F)(F)F)n3)CC2)C1 [Compound 18]
< 10 nM

---

Assay: Plasma pharmacokinetics after single oral sustained release dose
Assay type: in vivo, human
Conditions: human, plasma, po, 25 mg, plasma, single 25 mg SR oral dose, N=12; read-out: AUCall, Mean
RECORDED_ENDPOINT: AUC (µM·h)
Give your result in µM·h as a bare value.

State the recorded AUC for this entry: N#CCC1(n2cc(-c3ncnc4[nH]ccc34)cn2)CN(C2CCN(C(=O)c3ccnc(C(F)(F)F)c3F)CC2)C1
0.11

---

Experiment: Plasma pharmacokinetics after single oral sustained release dose
Format: in vivo, human
Settings: human, plasma, po, 25 mg, single 25 mg SR oral dose, N=12; read-out: Vz/F, Mean
RECORDED_ENDPOINT: Vd/F
Please answer using the number first and the unit second.

Suppose we examine the compound N#CCC1(n2cc(-c3ncnc4[nH]ccc34)cn2)CN(C2CCN(C(=O)c3ccnc(C(F)(F)F)c3F)CC2)C1 ; what Vd/F value has been reported?
7360 L

---

Tested on: IL-6 stimulated phosphorylation of STAT3 in PBMCs
Test: IL-6 stimulated STAT3 phosphorylation in human PBMC
Format: cell-based
Conditions: read-out: in vitro IC50 for suppression of IL-6 stimulated phosphorylation of STAT3 in PBMCs (JAK1 inhibition)
RECORDED_ENDPOINT: IC50 (nM)
Note: unit nM is implicit; provide only the numeric part.

# returns recorded IC50 (system: IL-6 stimulated phosphorylation of STAT3 in PBMCs) for N#CCC1(n2cc(-c3ncnc4[nH]ccc34)cn2)CN(C2CCN(C(=O)c3ccnc(C(F)(F)F)c3F)CC2)C1 [Compound 1]
58
